test: Microsomal Stability Assay (Examples 6 and 8); assay type: in vitro ADME, mouse; conditions: CD-1, mouse, liver microsomes, pH 7.4, text; read-out: half-life in mouse liver microsomes
Form field: half-life at 20 µM (one value per entry).

# Compound, Readout value
data = [
    ("Nc1cc(-c2ncco2)ccc1NC1CCCCC1", "< 1 h"),
]

In: half-life at 20 µM for Cc1noc(-c2ccc(NC3CCCCC3)c(N)c2)n1 ?
Out: < 1 h

In: half-life at 20 µM for Cc1noc(-c2cnc(NC3CCCCC3)c(NC3CCCCC3)c2)n1 ?
Out: 0.5 to 1 h

In: half-life at 20 µM for Cc1noc(-c2ccc(NC34CC5CC(CC(C5)C3)C4)c(N)c2)n1 ?
Out: < 1 h

In: half-life at 20 µM for CC(C)(C)OC(=O)c1ccc(NC2CCCCC2)c(Nc2ccccc2)c1 ?
Out: < 1 h

In: half-life at 20 µM for CCC(CC)Nc1cc(-c2nc(C)no2)cnc1NC1CCCCC1 ?
Out: > 1 h

In: half-life at 20 µM for CCOC(=O)c1ccc(NC2CCCCC2)c(N)c1 [Fer-1, Ferrostatin-1, reference compound] ?
Out: 0.04 h

In: half-life at 20 µM for Cc1cc(NC23CC4CC(CC(C4)C2)C3)c(N)cc1C(=O)OC(C)(C)C ?
Out: < 1 h

In: half-life at 20 µM for Cc1noc(-c2cnc(NC3CCCC3)c(NC3CCCC3)c2)n1 ?
Out: > 1 h

In: half-life at 20 µM for CC(C)(C)OC(=O)c1cc(N)c(NC23CC4CC(CC(C4)C2)C3)cc1F ?
Out: < 1 h
